# targetUnderTest: EGFR (T790M, L858R) (h) (Homo sapiens, UniProt P00533, L858R/T790M)
# Sequence (P00533 25-1210 T790M/L858R): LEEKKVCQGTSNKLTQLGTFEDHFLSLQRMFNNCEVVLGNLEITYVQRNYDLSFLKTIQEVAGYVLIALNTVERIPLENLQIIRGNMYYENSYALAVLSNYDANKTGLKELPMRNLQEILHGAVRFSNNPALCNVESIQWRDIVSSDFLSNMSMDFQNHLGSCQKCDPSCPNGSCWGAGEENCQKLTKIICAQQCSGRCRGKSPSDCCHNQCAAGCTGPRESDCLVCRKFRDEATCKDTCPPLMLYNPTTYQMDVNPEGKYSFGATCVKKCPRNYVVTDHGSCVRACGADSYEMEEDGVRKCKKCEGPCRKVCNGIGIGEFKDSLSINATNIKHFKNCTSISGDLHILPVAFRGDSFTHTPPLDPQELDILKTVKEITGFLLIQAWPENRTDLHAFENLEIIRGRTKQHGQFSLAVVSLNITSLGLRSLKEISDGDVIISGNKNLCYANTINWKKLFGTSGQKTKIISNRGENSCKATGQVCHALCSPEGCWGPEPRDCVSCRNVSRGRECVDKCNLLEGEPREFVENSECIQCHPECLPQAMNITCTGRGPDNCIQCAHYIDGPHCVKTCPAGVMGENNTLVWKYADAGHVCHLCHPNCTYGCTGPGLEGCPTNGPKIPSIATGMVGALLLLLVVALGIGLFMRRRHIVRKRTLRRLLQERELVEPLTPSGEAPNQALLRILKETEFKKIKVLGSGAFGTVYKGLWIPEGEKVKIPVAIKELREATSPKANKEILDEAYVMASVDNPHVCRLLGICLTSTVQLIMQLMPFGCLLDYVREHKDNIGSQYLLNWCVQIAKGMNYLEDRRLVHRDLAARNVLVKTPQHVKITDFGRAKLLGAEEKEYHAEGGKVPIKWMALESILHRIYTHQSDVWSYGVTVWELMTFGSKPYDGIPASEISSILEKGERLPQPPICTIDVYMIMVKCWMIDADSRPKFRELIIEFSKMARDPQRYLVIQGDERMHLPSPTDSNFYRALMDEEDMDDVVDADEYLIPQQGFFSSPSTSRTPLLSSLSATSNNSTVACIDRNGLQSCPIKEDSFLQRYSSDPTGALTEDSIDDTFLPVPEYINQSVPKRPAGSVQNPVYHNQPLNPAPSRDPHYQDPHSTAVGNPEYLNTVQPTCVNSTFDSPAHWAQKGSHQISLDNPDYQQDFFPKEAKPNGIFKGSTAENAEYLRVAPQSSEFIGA
# experimentNotes: Radioisotope labeling kinase assay (Eurofins), EGFR (T790M, L858R)
Answer each item with its documented pIC50.
Numbers only, as −log10 of the molar value.

Consider the worked cases shown below.
C/C=C/C(=O)Nc1cc2cc(c1)Nc1nccc(n1)-c1cccc(c1)COC/C=C/COC2 :: 7.22
C#CC(=O)Nc1cc2cc(c1)Nc1nccc(n1)-c1cccc(c1)COC/C=C/COC2 :: 7.41
CN(C)C/C=C/C(=O)Nc1cc2cc(c1)Nc1nccc(n1)-c1cccc(c1)COC/C=C/COC2 :: 7.77
O=C(/C=C/CN1CCOCC1)Nc1cc2cc(c1)Nc1nccc(n1)-c1cccc(c1)COC/C=C/COC2 :: 7.68

Need pIC50 for each of these compounds.
1. O=C(/C=C/CN1CCCC1)Nc1cc2cc(c1)Nc1nccc(n1)-c1cccc(c1)COC/C=C/COC2
2. C/C=C/C(=O)Nc1cc2cc(c1)Nc1nccc(n1)-c1cccc(c1)COC/C=C/CN(C)C2
3. CN(C)C/C=C/C(=O)Nc1cc2cc(c1)Nc1nccc(n1)-c1cccc(c1)COC/C=C/CN(C)C2

[8.00, 6.52, 6.79]

Need pIC50 for each of these compounds.
1. Nc1cc2cc(c1)Nc1nccc(n1)-c1cccc(c1)COC/C=C/COC2
2. C=CC(=O)Nc1cc2cc(c1)Nc1nccc(n1)-c1cccc(c1)COC/C=C/COC2

[7.72, 7.19]

###

# targetUnderTest: TrkA (h) (Homo sapiens, UniProt P04629)
# Sequence (P04629 33-796): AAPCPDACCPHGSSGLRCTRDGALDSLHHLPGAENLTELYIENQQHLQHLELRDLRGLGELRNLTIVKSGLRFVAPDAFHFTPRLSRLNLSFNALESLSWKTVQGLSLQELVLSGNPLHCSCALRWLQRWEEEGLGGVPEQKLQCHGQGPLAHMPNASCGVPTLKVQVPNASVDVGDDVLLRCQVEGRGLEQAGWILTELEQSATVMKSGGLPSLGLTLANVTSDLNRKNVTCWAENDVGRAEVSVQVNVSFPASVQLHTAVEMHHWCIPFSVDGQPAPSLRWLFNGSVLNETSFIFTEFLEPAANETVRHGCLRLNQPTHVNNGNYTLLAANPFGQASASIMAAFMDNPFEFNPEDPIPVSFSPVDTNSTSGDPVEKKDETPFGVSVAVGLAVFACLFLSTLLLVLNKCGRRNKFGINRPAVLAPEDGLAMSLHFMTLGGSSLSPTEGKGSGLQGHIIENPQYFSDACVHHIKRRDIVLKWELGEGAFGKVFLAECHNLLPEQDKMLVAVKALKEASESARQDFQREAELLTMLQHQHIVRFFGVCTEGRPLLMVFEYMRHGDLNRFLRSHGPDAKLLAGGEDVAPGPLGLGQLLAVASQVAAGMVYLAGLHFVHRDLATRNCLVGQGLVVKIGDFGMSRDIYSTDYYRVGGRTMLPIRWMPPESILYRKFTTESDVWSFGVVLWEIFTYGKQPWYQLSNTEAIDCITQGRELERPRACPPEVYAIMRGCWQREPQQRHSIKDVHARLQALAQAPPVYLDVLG
Answer each item with its documented IC50.
Give bare numbers, in nM.

C=CC(=O)Nc1cc2cc(c1)Nc1nccc(n1)-c1cccc(c1)COC/C=C/COC2 :: 2
O=C(/C=C/CN1CCOCC1)Nc1cc2cc(c1)Nc1nccc(n1)-c1cccc(c1)COC/C=C/COC2 :: 2

Now for the molecule whose IC50 we want.
Documented IC50 of O=C(O)/C=C/C(=O)Nc1cc2cc(c1)Nc1nccc(n1)-c1cccc(c1)COC/C=C/COC2 : 3

###

Let's go through some pIC50 measurements on TrkA (h) (Homo sapiens, UniProt P04629) together.
Answers are plain numbers, as −log10 of the molar value.

Consider the worked cases shown below.
C/C=C/C(=O)Nc1cc2cc(c1)Nc1nccc(n1)-c1cccc(c1)COC/C=C/COC2 :: 8.70
C#CC(=O)Nc1cc2cc(c1)Nc1nccc(n1)-c1cccc(c1)COC/C=C/COC2 :: 8.70
C/C=C/C(=O)Nc1cc2cc(c1)Nc1nccc(n1)-c1cccc(c1)COC/C=C/CN(C)C2 :: 7.70

Now for the molecule whose pIC50 we want.
Documented pIC50 of CN(C)C/C=C/C(=O)Nc1cc2cc(c1)Nc1nccc(n1)-c1cccc(c1)COC/C=C/CN(C)C2 : 7.55

###

Answer each item with its documented IC50.
# targetUnderTest: Ab1 (h) (Homo sapiens)
# Sequence (P00519 whole entry): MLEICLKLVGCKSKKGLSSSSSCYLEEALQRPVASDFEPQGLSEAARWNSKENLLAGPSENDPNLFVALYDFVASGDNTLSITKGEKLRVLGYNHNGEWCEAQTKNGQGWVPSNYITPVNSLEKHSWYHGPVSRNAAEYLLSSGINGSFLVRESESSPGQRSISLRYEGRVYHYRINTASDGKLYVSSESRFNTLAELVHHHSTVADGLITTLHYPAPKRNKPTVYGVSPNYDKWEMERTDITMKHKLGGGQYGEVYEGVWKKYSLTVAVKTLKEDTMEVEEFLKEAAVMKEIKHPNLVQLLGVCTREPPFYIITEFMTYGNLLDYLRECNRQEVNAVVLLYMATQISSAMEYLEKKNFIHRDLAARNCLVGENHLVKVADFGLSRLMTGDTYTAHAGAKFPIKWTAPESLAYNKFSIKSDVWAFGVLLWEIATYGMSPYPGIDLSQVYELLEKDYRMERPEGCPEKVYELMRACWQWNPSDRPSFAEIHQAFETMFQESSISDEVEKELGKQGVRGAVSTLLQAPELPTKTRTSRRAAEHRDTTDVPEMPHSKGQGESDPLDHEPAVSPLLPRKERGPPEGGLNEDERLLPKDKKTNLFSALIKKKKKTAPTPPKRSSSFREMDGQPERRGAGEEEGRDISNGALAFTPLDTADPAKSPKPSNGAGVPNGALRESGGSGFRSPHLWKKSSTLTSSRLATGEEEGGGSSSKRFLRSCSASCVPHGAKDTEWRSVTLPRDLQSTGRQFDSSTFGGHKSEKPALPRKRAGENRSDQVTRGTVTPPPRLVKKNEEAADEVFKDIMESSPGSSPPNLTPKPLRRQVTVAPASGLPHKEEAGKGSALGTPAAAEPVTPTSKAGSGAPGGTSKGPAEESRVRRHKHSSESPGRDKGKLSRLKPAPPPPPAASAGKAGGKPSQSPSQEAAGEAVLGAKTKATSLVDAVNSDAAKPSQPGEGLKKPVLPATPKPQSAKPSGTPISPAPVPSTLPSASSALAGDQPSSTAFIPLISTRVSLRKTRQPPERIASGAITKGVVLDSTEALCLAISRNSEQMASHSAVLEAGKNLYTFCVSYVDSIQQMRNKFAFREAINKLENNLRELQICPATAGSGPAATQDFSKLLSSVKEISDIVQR
One number for each entry, in nM.

O=C(/C=C/C(=O)N1CCNCC1)Nc1cc2cc(c1)Nc1nccc(n1)-c1cccc(c1)COC/C=C/COC2 [XVI-11] :: 34

Documented IC50 of O=C(/C=C/C(=O)N1CCOCC1)Nc1cc2cc(c1)Nc1nccc(n1)-c1cccc(c1)COC/C=C/COC2 [XVI-10] : 139

###

# targetUnderTest: Flt3 (D835Y) (h) (Homo sapiens, UniProt P36888, D835Y)
# Construct: purchased Eurofins
# experimentNotes: Radioisotope labeling kinase assay (Eurofins), Flt3 (D835Y)
# Format: biochemical
# experimentalSetup: 1 μM compound; read-out: Inhibitory activity per unit concentration/Activity % Flt3 (D835Y) (h)
measurementType: activity at 1 µM (%)
Give bare numbers, in %.

CN1C/C=C/COCc2cccc(c2)-c2ccnc(n2)Nc2cc(cc(NC(=O)/C=C/C(F)(F)F)c2)C1 :: 3
N#Cc1ccc(/C=C/C(=O)Nc2cc3cc(c2)Nc2nccc(n2)-c2cccc(c2)COC/C=C/COC3)cc1 :: 3
C1=C/COCc2ccc(O/C=C/CN3CCCC3)c(c2)Nc2nccc(n2)-c2cccc(c2)CCC/1 :: 79
O=C(/C=C/COc1ccc2cc1Nc1nccc(n1)-c1cccc(c1)COC/C=C/COC2)N1CCOCC1 :: 41

Need activity at 1 µM for each of these compounds.
1. C/C=C/C(=O)Nc1cc2cc(c1)Nc1nccc(n1)-c1cccc(c1)COC/C=C/COC2
2. CN1C/C=C/COCc2cccc(c2)-c2ccnc(n2)Nc2cc(cc(NC(=O)/C=C/CN3CCOCC3)c2)C1
3. CN1CCC(NC(=O)/C=C/COc2ccc3cc2Nc2nccc(n2)-c2cccc(c2)COC/C=C/COC3)C1 (stereo not drawn)
4. CN1C/C=C/COCc2cccc(c2)-c2ccnc(n2)Nc2cc(cc(NC(=O)C#CCN3CCOCC3)c2)C1

[-1, 2, 50, 1]

Documented activity at 1 µM of O=C(/C=C/C(F)(F)F)Nc1cc2cc(c1)Nc1nccc(n1)-c1cccc(c1)COC/C=C/COC2 : 7

###

Let's go through some IC50 measurements on JAK2 (h) (Homo sapiens, UniProt O60674) together.
Sequence (O60674 whole entry): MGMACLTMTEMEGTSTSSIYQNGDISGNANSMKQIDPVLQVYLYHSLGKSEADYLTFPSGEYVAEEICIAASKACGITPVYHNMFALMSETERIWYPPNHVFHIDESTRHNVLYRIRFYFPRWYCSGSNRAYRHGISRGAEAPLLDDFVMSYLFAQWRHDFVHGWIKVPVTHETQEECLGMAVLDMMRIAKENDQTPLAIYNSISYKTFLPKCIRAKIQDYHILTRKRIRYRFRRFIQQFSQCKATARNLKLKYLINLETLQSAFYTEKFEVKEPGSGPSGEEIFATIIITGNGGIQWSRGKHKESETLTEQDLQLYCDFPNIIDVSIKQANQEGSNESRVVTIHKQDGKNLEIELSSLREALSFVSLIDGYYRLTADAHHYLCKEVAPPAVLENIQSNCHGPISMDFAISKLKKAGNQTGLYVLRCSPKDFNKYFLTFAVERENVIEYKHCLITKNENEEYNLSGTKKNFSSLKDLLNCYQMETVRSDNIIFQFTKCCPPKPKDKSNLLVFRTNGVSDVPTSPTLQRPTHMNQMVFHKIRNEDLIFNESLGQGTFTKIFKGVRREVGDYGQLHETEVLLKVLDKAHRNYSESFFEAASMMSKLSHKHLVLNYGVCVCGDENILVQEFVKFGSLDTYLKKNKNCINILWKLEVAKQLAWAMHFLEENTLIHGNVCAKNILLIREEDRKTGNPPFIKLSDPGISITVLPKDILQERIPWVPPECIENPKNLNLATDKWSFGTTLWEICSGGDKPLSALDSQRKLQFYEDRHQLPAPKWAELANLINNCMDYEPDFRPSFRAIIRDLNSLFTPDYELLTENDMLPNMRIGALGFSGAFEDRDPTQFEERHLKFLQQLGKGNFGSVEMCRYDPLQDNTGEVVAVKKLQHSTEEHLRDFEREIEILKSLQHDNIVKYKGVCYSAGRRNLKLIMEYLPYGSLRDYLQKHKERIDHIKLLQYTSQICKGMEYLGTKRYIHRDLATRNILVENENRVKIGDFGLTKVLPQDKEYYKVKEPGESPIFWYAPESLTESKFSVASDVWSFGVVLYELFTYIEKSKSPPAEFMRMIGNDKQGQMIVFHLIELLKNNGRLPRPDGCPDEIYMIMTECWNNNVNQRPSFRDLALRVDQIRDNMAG
Numbers only, in nM.

C/C=C/C(=O)Nc1cc2cc(c1)Nc1nccc(n1)-c1cccc(c1)COC/C=C/CN(C)C2 :: 86
CN(C)C/C=C/C(=O)Nc1cc2cc(c1)Nc1nccc(n1)-c1cccc(c1)COC/C=C/CN(C)C2 :: 328
C=CC(=O)Nc1cc2cc(c1)Nc1nccc(n1)-c1cccc(c1)COC/C=C/COC2 :: 16

Now for the molecule whose IC50 we want.
Form: item C#CC(=O)Nc1cc2cc(c1)Nc1nccc(n1)-c1cccc(c1)COC/C=C/COC2 ; test system JAK2 (h) (Homo sapiens, UniProt O60674); IC50: 13

###

Answer each item with its documented IC50.
# System: K562 Human acute myelogenous leukemia
# experimentNotes: MTT cell proliferation inhibition, K562
# Assay type: cell-based
# experimentalSetup: K562, 72 hours

O=C(/C=C/CN1CCOCC1)Nc1cc2cc(c1)Nc1nccc(n1)-c1cccc(c1)COC/C=C/COC2 :: 2880 nM

Now for the compound whose IC50 we want.
Documented IC50 of O=C(/C=C/CN1CCCC1)Nc1cc2cc(c1)Nc1nccc(n1)-c1cccc(c1)COC/C=C/COC2 : 470 nM

###

# targetUnderTest: Flt3 (h) (Homo sapiens, UniProt P36888)
# Construct: purchased Eurofins
# Sequence (P36888 27-993): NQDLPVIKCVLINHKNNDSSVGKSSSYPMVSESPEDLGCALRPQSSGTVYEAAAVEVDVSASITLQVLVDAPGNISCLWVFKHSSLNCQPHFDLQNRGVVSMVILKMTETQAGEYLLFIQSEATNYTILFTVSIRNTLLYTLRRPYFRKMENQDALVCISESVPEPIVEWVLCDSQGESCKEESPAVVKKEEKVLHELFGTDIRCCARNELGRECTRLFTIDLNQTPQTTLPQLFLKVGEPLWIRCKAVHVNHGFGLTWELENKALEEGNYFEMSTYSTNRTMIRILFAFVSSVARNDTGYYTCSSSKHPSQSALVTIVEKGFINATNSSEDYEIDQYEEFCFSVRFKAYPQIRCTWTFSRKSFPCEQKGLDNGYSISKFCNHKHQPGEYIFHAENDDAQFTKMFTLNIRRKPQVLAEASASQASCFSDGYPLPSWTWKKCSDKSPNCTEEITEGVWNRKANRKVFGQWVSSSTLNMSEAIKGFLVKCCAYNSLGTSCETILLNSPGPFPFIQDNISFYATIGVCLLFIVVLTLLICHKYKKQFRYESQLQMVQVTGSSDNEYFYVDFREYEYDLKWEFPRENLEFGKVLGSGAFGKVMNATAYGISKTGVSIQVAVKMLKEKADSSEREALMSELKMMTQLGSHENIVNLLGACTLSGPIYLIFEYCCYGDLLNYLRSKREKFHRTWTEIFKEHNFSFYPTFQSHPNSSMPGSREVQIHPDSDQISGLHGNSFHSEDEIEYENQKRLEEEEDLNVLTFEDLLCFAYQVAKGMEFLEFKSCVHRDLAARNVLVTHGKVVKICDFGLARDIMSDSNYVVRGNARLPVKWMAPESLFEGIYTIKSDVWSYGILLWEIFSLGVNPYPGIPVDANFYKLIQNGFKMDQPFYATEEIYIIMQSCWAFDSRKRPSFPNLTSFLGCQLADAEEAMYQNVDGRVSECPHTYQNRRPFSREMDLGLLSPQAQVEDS
# experimentNotes: Radioisotope labeling kinase assay (Eurofins), Flt3
# Assay type: biochemical
# experimentalSetup: 1 μM compound; read-out: Inhibitory activity per unit concentration/Activity % Flt3 (h)
Answer each item with its documented activity at 1 µM.
Give bare numbers, in %.

Consider the worked cases shown below.
O=C(/C=C/c1cnc[nH]1)Nc1cc2cc(c1)Nc1nccc(n1)-c1cccc(c1)COC/C=C/COC2 :: 7
C=CC(=O)Nc1cc2cc(c1)Nc1nccc(n1)-c1cccc(c1)COC/C=C/COC2 :: 5
O=C(/C=C/C(=O)N1CCOCC1)Nc1cc2cc(c1)Nc1nccc(n1)-c1cccc(c1)COC/C=C/COC2 :: 3
C1=C/COCc2ccc(OC/C=C/CN3CCCC3)c(c2)Nc2nccc(n2)-c2cccc(c2)COC/1 :: 91
CN1C/C=C/COCc2cccc(c2)-c2ccnc(n2)Nc2cc(N)cc(c2)C1 :: 7

Need activity at 1 µM for each of these molecules.
1. NC1CCN(C/C=C/C(=O)Nc2cc3cc(c2)Nc2nccc(n2)-c2cccc(c2)COC/C=C/COC3)C1 (stereo not shown)
2. C1=C/COCc2cccc(c2)-c2ccnc(n2)Nc2cc(cc(OC/C=C/CN3CCCC3)c2)COC/1
3. C1=C/COCc2ccc(OC/C=C/CN3CCOCC3)c(c2)Nc2nccc(n2)-c2cccc(c2)COC/1
4. CN(C)C/C=C/C(=O)Nc1cc2cc(c1)Nc1nccc(n1)-c1cccc(c1)COC/C=C/COC2
5. CN1C/C=C/COCc2cccc(c2)-c2ccnc(n2)Nc2cc(cc(NC(=O)C#CCN3CCOCC3)c2)C1

1: 16; 2: -8; 3: 78; 4: 2; 5: 4

Data credit: patent US20240425518A1
